System: BHT-101 (Thyroid Gland Carcinoma)
Assay: combination Emax (second highest fraction inhibited in the dose matrix, 72 h); higher = more inhibition; extreme values may be limits of the assay
readout type: combination Emax

compound="CC1(C)CCC(CN2CCN(c3ccc(C(=O)NS(=O)(=O)c4ccc(NCC5CCOCC5)c([N+](=O)[O-])c4)c(Oc4cnc5[nH]ccc5c4)c3)CC2)=C(c2ccc(Cl)cc2)C1 [Venetoclax] + CCN(CCO)CCCOc1ccc2c(Nc3cc(CC(=O)Nc4cccc(F)c4)[nH]n3)ncnc2c1 [AZD2811] (first compound max 1 µM, 7x7, partner max 1 µM)" reported_measurement=0.157
compound="Cc1c2c(nn1C)CSCc1cc(n(C)n1)CSc1cc(c3ccccc3c1)OCCCc1c(C(=O)O)n(C)c3c-2c(Cl)ccc13 [AZD5991] + CCN(CCO)CCCOc1ccc2c(Nc3cc(CC(=O)Nc4cccc(F)c4)[nH]n3)ncnc2c1 [AZD2811] (first compound max 1 µM, 7x7, partner max 1 µM)" reported_measurement=0.267

* * *

Bliss excess values by entry
System: MOLP-8 (Plasma Cell Myeloma);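 also: after 72 h of two-drug dosing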
Assay: Bliss excess, mean over the matrix (fraction); higher = more synergy
readout type: Bliss excess

molecule="C=CCn1c(=O)c2cnc(Nc3ccc(N4CCN(C)CC4)cc3)nc2n1-c1cccc(C(C)(C)O)n1 [AZD1775] + C[C@@H]1COCCN1C2=NC(=NC(=C2)C3(CC3)[S@](=N)(=O)C)C4=C5C=CNC5=NC=C4 [AZD6738] (first compound max 1 µM, partner max 10 µM)" assayed_target="MOLP-8 (Plasma Cell Myeloma)" reported_measurement=-0.0064
molecule="COc1nnc2ccc(N3CCC(c4ccc(OCCN5CCN(C)C(=O)[C@H]5C)cc4)CC3)nn12 [AZD5153] + CN(CC[C@H](CSC1=CC=CC=C1)NC2=C(C=C(C=C2)S(=O)(=O)NC(=O)C3=CC=C(C=C3)N4CCC(CC4)[C@H](C5=CC=CC=C5C6=CC=C(C=C6)Cl)O)S(=O)(=O)C(F)(F)F)CCO [AZD4320] (first compound max 1 µM, 7x7, partner max 1 µM)" assayed_target="MOLP-8 (Plasma Cell Myeloma)" reported_measurement=0.0239

* * *

System: SiHa (Cervical Carcinoma)
Assay: combination Emax (second highest fraction inhibited in the dose matrix, 72 h); higher = more inhibition; extreme values may be limits of the assay
combination Emax values by entry
readout type: combination Emax

molecule="CC1(C)CCC(CN2CCN(c3ccc(C(=O)NS(=O)(=O)c4ccc(NCC5CCOCC5)c([N+](=O)[O-])c4)c(Oc4cnc5[nH]ccc5c4)c3)CC2)=C(c2ccc(Cl)cc2)C1 [Venetoclax] + Cn1cnc2c(F)c(Nc3ccc(Br)cc3Cl)c(C(=O)NOCCO)cc21 [Selumetinib] (first compound max 1 µM, 7x7, partner max 3 µM)" assayed_target="SiHa (Cervical Carcinoma)" readout_type="combination Emax" reported_measurement=0.16
molecule="COc1nnc2ccc(N3CCC(c4ccc(OCCN5CCN(C)C(=O)[C@H]5C)cc4)CC3)nn12 [AZD5153] + CCN(CCO)CCCOc1ccc2c(Nc3cc(CC(=O)Nc4cccc(F)c4)[nH]n3)ncnc2c1 [AZD2811] (first compound max 1 µM, 7x7, partner max 1 µM)" assayed_target="SiHa (Cervical Carcinoma)" readout_type="combination Emax" reported_measurement=0.571
molecule="CC1(C)CCC(CN2CCN(c3ccc(C(=O)NS(=O)(=O)c4ccc(NCC5CCOCC5)c([N+](=O)[O-])c4)c(Oc4cnc5[nH]ccc5c4)c3)CC2)=C(c2ccc(Cl)cc2)C1 [Venetoclax] + COc1cc(Nc2ncc3c(n2)-c2ccc(Cl)cc2C(c2c(F)cccc2OC)=NC3)ccc1C(=O)O [Alisertib] (first compound max 1 µM, 7x7, partner max 10 µM)" assayed_target="SiHa (Cervical Carcinoma)" readout_type="combination Emax" reported_measurement=0.212
molecule="CN(CCO)CC[C@H](CSc1ccccc1)Nc1ccc(S(=O)(=O)NC(=O)c2ccc(N3CCC([C@@H](O)c4ccccc4-c4ccc(Cl)cc4)CC3)cc2)cc1S(=O)(=O)C(F)(F)F [AZD4320] + Cc1cc2ncnn2cc1Nc1ncc2c(n1)n(C1CCOCC1)c(=O)n2C [AZD7648] (first compound max 1 µM, 7x7, partner max 10 µM)" assayed_target="SiHa (Cervical Carcinoma)" readout_type="combination Emax" reported_measurement=0.12
molecule="Cc1nc(Nc2ncc(C(=O)Nc3c(C)cccc3Cl)s2)cc(N2CCN(CCO)CC2)n1 [Dasatinib] + CC(=O)Nc1cccc(-n2c(=O)n(C3CC3)c(=O)c3c(Nc4ccc(I)cc4F)n(C)c(=O)c(C)c32)c1 [Trametinib] (first compound max 2 µM, 7x7, partner max 1 µM)" assayed_target="SiHa (Cervical Carcinoma)" readout_type="combination Emax" reported_measurement=0.329
molecule="CN(C)CCCOc1ccc(-c2ccc3ncc4c(c3c2)n(C2CCOCC2)c(=O)n4C)cn1 [AZD0156] + C[C@@H]1COCCN1C2=NC(=NC(=C2)C3(CC3)[S@](=N)(=O)C)C4=C5C=CNC5=NC=C4 [AZD6738] (first compound max 1 µM, 7x7, partner max 10 µM)" assayed_target="SiHa (Cervical Carcinoma)" readout_type="combination Emax" reported_measurement=0.234
molecule="COc1cccc(OCCCN)c1-c1cc(Nc2cnc(C#N)cn2)n[nH]1 [Prexasertib] + Cc1cc2ncnn2cc1Nc1ncc2c(n1)n(C1CCOCC1)c(=O)n2C [AZD7648] (first compound max 1 µM, 7x7, partner max 10 µM)" assayed_target="SiHa (Cervical Carcinoma)" readout_type="combination Emax" reported_measurement=0.386
